# test details: inhibitors of measles virus growth in cells, primary screen, measles RdRp inhibitor project, cell-based, single point, HTS (AID 745)
# experimental conditions: infected Vero cells, GFP fluorescence, 64 h; active compounds read low
About 40 (0.1%) of roughly 33,000 compounds were called active. The sample holds actives, similar compounds and a random draw of the others, so the mix is not that of the screen.
endpoint name: z-score

I have this molecule here, COc1cc(NC(=O)c2noc3c2CCCCC3)c(OC)cc1Cl , and I need its recorded z-score. -0.93 (inactive)

I have this molecule here, Cc1noc(NS(=O)(=O)c2ccc(NC(=O)c3cccc(Br)c3)cc2)c1C , and I need its recorded z-score. 0.43 (inactive)

I have this molecule here, COc1ccc(C=NCCC2(c3ccc(OC)cc3)CCOC(C)(C)C2)cc1 (stereo unspecified) , and I need its recorded z-score. -0.17 (inactive)

I have this molecule here, CCOC(=O)c1c(C)nc2c(C#N)c(C)n(-c3ccccc3)c2c1-c1ccc(Br)cc1 , and I need its recorded z-score. 3.74 (inactive)

I have this molecule here, O=C(CCCn1c(=O)[nH]c2cc(Cl)ccc2c1=O)NCCc1c[nH]c2ccccc12 , and I need its recorded z-score. -0.02 (inactive)

I have this molecule here, CN(C)c1ccc(C(O)(c2ccccc2)c2ccccc2)cc1 , and I need its recorded z-score. -0.51 (inactive)

I have this molecule here, CCCn1c2ccccc2c2n[nH]c(=S)nc21 , and I need its recorded z-score. -0.86 (inactive)

I have this molecule here, CCCn1c(C(C)NC(=O)C(C)(C)C)nc2ccccc21 (stereo unspecified) , and I need its recorded z-score. -0.58 (inactive)

I have this molecule here, COc1ccc2c(c1)c(C(=O)CNc1nc(C)c(C)s1)c(C)n2C , and I need its recorded z-score. -1 (inactive)

I have this molecule here, COC(=O)c1sc(=S)n(-c2ccc(OC)c(Cl)c2)c1N , and I need its recorded z-score. 0.31 (inactive)

I have this molecule here, Cc1ccc(NCc2ccccc2CO)cc1 , and I need its recorded z-score. -0.53 (inactive)

====

# test details: inhibitors of measles virus growth in cells, primary screen, measles RdRp inhibitor project, cell-based, single point, HTS (AID 745)
# experimental conditions: infected Vero cells, GFP fluorescence, 64 h; active compounds read low
Out of some 33,000 compounds screened, about 40 (0.1%) were called active. This is one part of a sample in which actives are shown more often than they occur.
endpoint name: z-score
// keep it numeric: no unit symbol after the value

I have this compound here, O=S(=O)(c1ccccc1)N1CCN(C2CC3CCC2C3)CC1 (stereo not given) , and I need its recorded z-score. -0.28

I have this compound here, O=C(Nc1ncnc2sc3c(c12)CCCC3)c1ccccc1 , and I need its recorded z-score. 0.41

I have this compound here, Cc1ccc(S(=O)(=O)N2N=C(c3ccccc3)CC2c2ccccc2Cl)cc1 (stereo not given) , and I need its recorded z-score. 0.52

I have this compound here, O=C(NCc1ccc(F)cc1)c1ccc2c(=O)n(C3CCCC3)c(=S)[nH]c2c1 , and I need its recorded z-score. -0.53

I have this compound here, COc1ccc(-n2cnc3cc(C(=O)NC4CCCC4)ccc32)cc1 , and I need its recorded z-score. -0.86

I have this compound here, Cc1ccc(S(=O)(=O)C2(C(=O)N(C)Cc3ccccc3)CC2)cc1 , and I need its recorded z-score. 0.74

I have this compound here, CC(=O)N1CCc2cc(S(=O)(=O)CCC(=O)Nc3ccc(C(F)(F)F)cc3)ccc21 , and I need its recorded z-score. -0.69

I have this compound here, Cc1cc(C)cc(-n2nc3c(c2NC(=O)CCCCl)CSC3)c1 , and I need its recorded z-score. -0.91

I have this compound here, COc1cc(NS(=O)(=O)c2ccc(NC(=O)CN3C(=O)c4ccccc4C3=O)cc2)ncn1 , and I need its recorded z-score. -0.53

I have this compound here, COc1ccc(NC(=O)CN2C(=O)C3C4CCC(C4)C3C2=O)cc1 (stereo not given) , and I need its recorded z-score. 0.52
